biological target: glucagon receptor (GCGR) overexpressed CHO-K1 cells or human primary hepatocytes (Homo sapiens); construct: expressed in transfected cells; host or cells: GCGR overexpressed CHO-K1 cells or human primary hepatocytes (endogenous receptor); assay: Glucagon cAMP inhibition assay (Cisbio cAMP Dynamic 2 HTRF); type: cell-based; conditions: inhibition of glucagon (EC50 concentration) induced cAMP production
compounds and their reported IC50 cAMP
Give the number; µM is assumed, so skip it.

Task item: Output measured IC50 cAMP for this item: CC(C)(C)[C@@H](COc1ccc(-c2ccc(C(F)(F)F)cc2F)c(Cl)c1)Nc1ccc(C(=O)NCCC(=O)O)cc1 [Compound 3-24]
Reply: 0.08

Task item: Output measured IC50 cAMP for this item: CC(C)[C@@H](COc1ccc(-c2ccc(Cl)cc2Cl)nc1)Nc1ccc(C(=O)NCCC(=O)O)cc1 [Compound 10-4]
Reply: 4.036

Task item: Output measured IC50 cAMP for this item: CC(C)(C)[C@@H](COc1ccc(-c2cc3ccccc3o2)c(F)c1)Nc1ccc(C(=O)NCCC(=O)O)cc1 [Compound 8-21]
Reply: 0.181

Task item: Output measured IC50 cAMP for this item: CC(C)[C@@H](COc1ccc(-c2cc3ccccc3o2)nc1)Nc1ccc(C(=O)NCCC(=O)O)cc1 [Compound 10-6]
Reply: 2.65

====

target: glucagon receptor (GCGR) (Homo sapiens); construct: expressed in transfected cells; host or cells: CHO-K1 cells overexpressing GCGR (membrane fractions); experiment: I125-glucagon binding assay (competition, GCGR membrane fractions); settings: competition with I125-glucagon 0.0625 nM, membrane fractions of GCGR overexpressed CHO-K1 cells
Sequence (P47871 26-477): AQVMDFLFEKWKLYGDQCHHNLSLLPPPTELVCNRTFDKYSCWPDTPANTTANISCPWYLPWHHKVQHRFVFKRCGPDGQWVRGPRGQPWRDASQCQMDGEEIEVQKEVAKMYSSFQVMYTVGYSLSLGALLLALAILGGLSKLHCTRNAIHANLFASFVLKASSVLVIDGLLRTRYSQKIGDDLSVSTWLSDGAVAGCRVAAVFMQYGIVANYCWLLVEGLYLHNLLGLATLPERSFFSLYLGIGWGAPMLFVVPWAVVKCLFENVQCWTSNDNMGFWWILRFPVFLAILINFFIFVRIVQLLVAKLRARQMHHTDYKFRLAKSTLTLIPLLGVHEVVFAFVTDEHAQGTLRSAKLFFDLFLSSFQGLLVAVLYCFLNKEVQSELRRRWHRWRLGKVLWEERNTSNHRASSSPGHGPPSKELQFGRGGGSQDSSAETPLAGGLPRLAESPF
In plain terms, low IC50, meaning strictly below 100 nM, gives yes (1), and everything else gives no (0).

Some entries whose results are on file:
1) CC[C@H](C)[C@@H](COc1ccc(-c2ccc(Cl)cc2Cl)cc1)Nc1ccc(C(=O)NCCC(=O)O)cc1 | no (0)
2) O=C(O)CCNC(=O)c1ccc(NC(COc2ccc(-c3cc4ccccc4o3)cc2)c2ccccc2)cc1 (stereo not shown) | no (0)
3) CC[C@H](C)[C@@H](COc1cc(Cl)c(-c2ccc(C(F)(F)F)cc2Cl)cc1Cl)Nc1ccc(C(=O)NCCC(=O)O)cc1 | yes (1)

Task item: Does this molecule meet the criterion IC50 < 100 nM? CC(C)[C@@H](COc1cc(F)c(-c2ccc(C(F)(F)F)cc2)c(F)c1)Nc1ccc(C(=O)NCCC(=O)O)cc1
Reply: no (0)

Task item: Does this molecule meet the criterion IC50 < 100 nM? CC[C@H](C)[C@@H](COc1ccc(-c2ccc(Cl)cc2Cl)nc1)Nc1ccc(C(=O)NCCC(=O)O)cc1
Reply: no (0)

====

biological target: glucagon receptor (GCGR) overexpressed CHO-K1 cells or human primary hepatocytes (Homo sapiens, UniProt P47871); construct: expressed in transfected cells; host or cells: GCGR overexpressed CHO-K1 cells or human primary hepatocytes (endogenous receptor); experiment: Glucagon cAMP inhibition assay (Cisbio cAMP Dynamic 2 HTRF); assay type: cell-based
Sequence (P47871 26-477): as above
molecules and their reported IC50 cAMP
Give the number; µM is assumed, so skip it.

Task item: Output measured IC50 cAMP for this item: CC(C)[C@H](Nc1ccc(C(=O)NCCS(=O)(=O)O)cc1)C(=O)Nc1ccc(-c2cc3ccccc3o2)cc1
Reply: 75.611

Task item: Output measured IC50 cAMP for this item: CC(C)C[C@H](Cc1ccc(-c2cc3ccccc3o2)cc1)Nc1ccc(C(=O)NCCC(=O)O)cc1
Reply: 1.082

Task item: Output measured IC50 cAMP for this item: O=C(NCCS(=O)(=O)O)c1ccc(N[C@H](COc2ccc(-c3cc4ccccc4o3)cn2)c2ccc(-c3ccc(C(F)(F)F)cc3)cc2)cc1
Reply: 11.647

Task item: Output measured IC50 cAMP for this item: CC(C)COC[C@H](Cc1ccc(-c2ccc(C(F)(F)F)cc2)cc1)Nc1ccc(C(=O)NCCC(=O)O)cc1
Reply: 0.487

Task item: Output measured IC50 cAMP for this item: CC(C)[C@H](Nc1ccc(C(=O)NCCC(=O)O)cc1)c1nnc(-c2ccc(C(C)(C)C)cc2)o1
Reply: 4.853
